Reported IC50 values for the following compounds.
SYSTEM_UNDER_TEST: Plasmepsin V (Plasmodium falciparum (isolate 3D7), UniProt Q8I6Z5)
Sequence (Q8I6Z5 whole entry): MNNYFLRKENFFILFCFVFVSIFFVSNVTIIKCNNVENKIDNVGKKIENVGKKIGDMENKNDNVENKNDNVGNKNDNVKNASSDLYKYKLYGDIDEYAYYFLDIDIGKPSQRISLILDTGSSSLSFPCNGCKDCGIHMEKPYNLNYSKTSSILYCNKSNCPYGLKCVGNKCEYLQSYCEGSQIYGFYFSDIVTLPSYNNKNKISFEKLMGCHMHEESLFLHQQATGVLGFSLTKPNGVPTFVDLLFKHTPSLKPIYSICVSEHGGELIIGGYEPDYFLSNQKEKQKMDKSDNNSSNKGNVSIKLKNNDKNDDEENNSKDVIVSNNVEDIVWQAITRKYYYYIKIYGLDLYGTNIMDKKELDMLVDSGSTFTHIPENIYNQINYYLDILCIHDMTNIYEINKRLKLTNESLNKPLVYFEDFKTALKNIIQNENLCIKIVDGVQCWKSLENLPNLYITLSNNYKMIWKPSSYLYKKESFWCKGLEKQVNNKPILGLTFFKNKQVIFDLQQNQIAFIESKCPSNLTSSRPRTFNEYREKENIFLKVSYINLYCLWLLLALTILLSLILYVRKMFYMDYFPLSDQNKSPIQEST
PROCEDURE_DETAILS: Inhibition of Plasmodium falciparum plasmepsin V assessed as cleavage of wtKAHRP fluorogenic substrate
Square brackets hold non-standard residues; d marks the D form. Peptide text beside a SMILES is read from it. * marks the point of attachment. Sta = CC(C)C[C@H](N)[C@@H](O)CC(=O)O; NHPhenethyl = c1ccc(CCN*)cc1; Cbz = O=C(OCc1ccccc1)*
ASSAY_READOUT: IC50 (nM)

{"COMPOUND": "CC(C)C[C@H](NC(=O)[C@H](C)NC(=O)[C@H](CCc1ccccc1)NC(=O)OCc1ccccc1)[C@@H](O)CC(=O)NC1CCCCC1", "SYSTEM_UNDER_TEST": "Plasmepsin V (Plasmodium falciparum (isolate 3D7), UniProt Q8I6Z5)", "BOUND_TYPE": ">", "OBSERVED_MEASUREMENT": 20000}
{"COMPOUND": "CC(C)C[C@H](NC(=O)[C@H](C)NC(=O)[C@H](CCCNC(=N)N)NC(=O)OCc1ccccc1)[C@@H](O)CC(=O)NCCc1ccc(Cl)cc1", "SYSTEM_UNDER_TEST": "Plasmepsin V (Plasmodium falciparum (isolate 3D7), UniProt Q8I6Z5)", "BOUND_TYPE": "=", "OBSERVED_MEASUREMENT": 348}
{"COMPOUND": "CC(C)C[C@H](NC(=O)[C@H](C)NC(=O)[C@H](CCCNC(=N)N)NC(=O)COCc1ccccc1)[C@@H](O)CC(=O)NCCc1ccccc1", "SYSTEM_UNDER_TEST": "Plasmepsin V (Plasmodium falciparum (isolate 3D7), UniProt Q8I6Z5)", "BOUND_TYPE": "=", "OBSERVED_MEASUREMENT": 550}
{"COMPOUND": "CC(C)[C@H](NC(=O)[C@H](C)NC(=O)[C@H](CCCNC(=N)N)NC(=O)OCc1ccccc1)[C@@H](O)CC(=O)NC1CCCCC1", "SYSTEM_UNDER_TEST": "Plasmepsin V (Plasmodium falciparum (isolate 3D7), UniProt Q8I6Z5)", "BOUND_TYPE": ">", "OBSERVED_MEASUREMENT": 20000}
{"COMPOUND": "CC(C)C[C@H](NC(=O)[C@H](C)NC(=O)[C@H](CCCNC(=N)N)NC(=O)OCc1ccccc1)[C@@H](O)CC(=O)NCCc1ccccc1 (Cbz-Arg-Ala-[Sta]-NHPhenethyl)", "SYSTEM_UNDER_TEST": "Plasmepsin V (Plasmodium falciparum (isolate 3D7), UniProt Q8I6Z5)", "BOUND_TYPE": "=", "OBSERVED_MEASUREMENT": 622}
{"COMPOUND": "C[C@H](NC(=O)[C@H](CCCNC(=N)N)NC(=O)OCc1ccccc1)C(=O)N[C@@H](CC1CCCCC1)[C@@H](O)CC(=O)NC1CCCCC1", "SYSTEM_UNDER_TEST": "Plasmepsin V (Plasmodium falciparum (isolate 3D7), UniProt Q8I6Z5)", "BOUND_TYPE": ">", "OBSERVED_MEASUREMENT": 20000}
